Give measured inhibition for each item. Keep answers brief.
biological target: Receptor-interacting serine/threonine-protein kinase 2 (Homo sapiens) (UniProt O43353); experiment: inhibitors of RIPK2 association with NOD2 – fluorescence, CHO cells, BLA complementation, primary screen (AID 624267); conditions: CHO BLA complementation NOD2-RIPK2, CCF4 ratio; at 4.98 µM; stronger effect = higher value;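 further: 0% = vehicle only and 100% = reference blocker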
Sequence (O43353 whole entry, looked up): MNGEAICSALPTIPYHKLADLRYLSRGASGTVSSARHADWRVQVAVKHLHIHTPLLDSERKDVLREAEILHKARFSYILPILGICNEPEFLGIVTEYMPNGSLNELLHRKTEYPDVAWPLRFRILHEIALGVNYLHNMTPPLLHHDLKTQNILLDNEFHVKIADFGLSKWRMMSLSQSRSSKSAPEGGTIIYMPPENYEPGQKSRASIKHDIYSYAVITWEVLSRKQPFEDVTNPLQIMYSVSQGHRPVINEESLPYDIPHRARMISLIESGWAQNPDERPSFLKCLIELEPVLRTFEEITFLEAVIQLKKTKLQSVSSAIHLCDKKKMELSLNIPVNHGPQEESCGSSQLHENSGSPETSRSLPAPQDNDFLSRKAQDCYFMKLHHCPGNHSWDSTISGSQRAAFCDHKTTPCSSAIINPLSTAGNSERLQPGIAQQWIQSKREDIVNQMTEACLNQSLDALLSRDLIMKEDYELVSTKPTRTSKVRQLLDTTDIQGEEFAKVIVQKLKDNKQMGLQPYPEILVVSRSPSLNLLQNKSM
Among all 360,000 compounds or so, about 1,400 (0.39%) were called active. What follows is part of a selection rich in actives, with near analogues and random picks from the rest.

These recorded examples may help you get a feel for the data.
{"columns": ["molecule", "tested_on", "inhibition"],
 "data": [
  ["N#Cc1cccc(NC(=O)COC(=O)c2ccccc2C(=O)c2ccc(Cl)c([N+](=O)[O-])c2)c1", "Receptor-interacting serine/threonine-protein kinase 2 (Homo sapiens) (UniProt O43353)", "39.9% (active)"],
  ["NS(=O)(=O)c1cccc(NC(=O)COC(=O)c2cc([N+](=O)[O-])ccc2N2CCCC2)c1", "Receptor-interacting serine/threonine-protein kinase 2 (Homo sapiens) (UniProt O43353)", "-11.1% (inactive)"]
]}

Report inhibition for each item below.
1. CCN(CCO)C(=S)Nc1cc(C(=O)OC)ccc1C(=O)OC
2. COc1ccc(CNC(=O)CN2CCC(n3nnc4cc(F)ccc43)CC2)cc1

1: -1.65% (inactive); 2: -4.66% (inactive)

Batch request: inhibition for each of the following molecules.
1. COC(C)(C)[C@]12CC(O)(C(C)C)ON1[C@H]1CCCCC1N2O (stereo partly drawn)
2. CC(C)CC(=O)N=C1SC2CS(=O)(=O)CC2N1CCc1ccccc1 (stereo not drawn)
3. Cc1ccc(S(=O)(=O)NC(=O)N2CCCN(Cc3ccc(F)cc3)CC2)cc1
4. C=CCn1c(-c2ccccc2OCC)n[nH]c1=S
5. O=[N+]([O-])c1ccc(N2CCN(c3ccc(O)cc3)CC2)c(Cl)c1

-0.99% (inactive)
-9.18% (inactive)
8.13% (inactive)
0.62% (inactive)
-4.55% (inactive)

Batch: inhibition for all items listed.
1. COc1cc2[nH]c(O)c(C=O)c2cc1OC
2. Cc1ccc2[nH]c(C)c(CCNC(=O)NC3CCCCC3)c2c1
3. [O-][n+]1onc2c1CCc1[nH]c(-c3ccccc3)nc1-2
4. O=C(NCCC1=CCCCC1)c1ccc(Cl)c([N+](=O)[O-])c1
5. Cn1nnnc1SCC(=O)NNC(=O)c1ccc(Br)cc1
6. CCOc1ccc(S(=O)(=O)N2CCN(C(=O)c3oc4ccccc4c3C)CC2)cc1

["-11.7% (inactive)", "10.4% (inactive)", "-6.67% (inactive)", "-8.9% (inactive)", "-2.01% (inactive)", "-8.52% (inactive)"]

Working through the 7 molecules below one at a time, give inhibition for each.
1. O=C(Nc1ccc(CSc2ccccc2)cc1)c1ccc(CN2CCOCC2)cc1
2. O=C(/C=C/Sc1ncn[nH]1)c1ccc(Cl)cc1
3. CC(C)CNC(=S)NNC(=O)c1nn(C)cc1Cl
4. O=[N+]([O-])c1ccc(CN2CC(N3CC=CC3)CS2(=O)=O)cc1 (stereo not drawn)
5. Cc1cc(C)nc(NC(=O)Nc2ccccc2C(F)(F)F)n1
6. CCN(C(=O)COC(=O)C1CCN(S(=O)(=O)c2ccc(C)c(C)c2)CC1)C1CCS(=O)(=O)C1 (stereo not drawn)
7. NC(=O)NC(=O)C(OC(=O)CCNS(=O)(=O)c1ccccc1)c1ccccc1 (stereo not drawn)

-2.26% (inactive)
21.3% (active)
-4.5% (inactive)
-11% (inactive)
7.62% (inactive)
-0.71% (inactive)
-7.31% (inactive)

Please state, for each entry, its recorded inhibition.
1. COc1ccc(NC(=O)COC(=O)c2n[nH]c3ccccc23)c(OC)c1
2. CCCCn1nnnc1C1(C)CCC(=O)N1Cc1ccc(OC)c(OC)c1 (stereo not drawn)
3. Cn1c(SCC(=O)NC2CCCCC2)nnc1-c1ccc(N)cc1
4. O=C(c1ccc(O)cc1)c1ccc(C(=O)O)c(C(=O)O)c1

1: 2.43% (inactive); 2: -13.3% (inactive); 3: -8.42% (inactive); 4: 7.45% (inactive)

List reported inhibition for each of these molecules:
1. CCCCCNC(=O)C(c1ccc(OC)cc1)n1c(=O)c(-c2ccccc2)nc2ccccc21 (stereo not drawn)
2. OC(CN=c1sc2ccccc2n1CC(O)COc1ccccc1)COc1ccccc1 (stereo not drawn)
3. C[C@H]1CN([C@@H](C)CO)C(=O)c2cc(-c3cccc(F)c3)cnc2O[C@@H]1CN(C)S(C)(=O)=O
4. Nc1ncnc2c1ncn2[C@@H]1O[C@H](C(=O)NS(=O)(=O)c2c(Cl)nc3sccn23)[C@@H](O)[C@H]1O
5. Cc1ccc(S(=O)(=O)Nc2ccc3c(c2)C(=O)N([C@H](C)CO)C[C@@H](C)[C@@H](CN(C)C(=O)Nc2cccc4ccccc24)O3)cc1
6. O=C(NNC(=O)C1CCC1)c1ccccc1

["-13.6% (inactive)", "-11.1% (inactive)", "21.8% (active)", "-5.91% (inactive)", "-59.7% (inactive)", "-5.53% (inactive)"]

Okay, here is my list. What is inhibition for each of these?
1. C=CCn1cc(-c2cccc(C(F)(F)F)c2)cc(C#N)c1=O
2. O=C(COc1nsnc1N1CCOCC1)Nc1ccccc1Cl
3. Cc1ccsc1-c1cc(C(=O)O)c2c(ccc3ccccc32)n1
4. O=C(/C=C/c1ccc(Cl)c([N+](=O)[O-])c1)c1ccc(O)cc1
5. COc1ccc(C(C(=O)NCc2ccccc2)n2c(=O)c(-c3ccccc3)nc3ccccc32)cc1 (stereo not drawn)
6. COc1ccc(OC)c(N=Cc2c(O)[nH]c3ccccc23)c1
7. Cc1ccc(C(=O)N2CCC(n3nccc3NC(=O)Nc3cccc(F)c3)CC2)cn1
8. CCOc1ccc2c(=O)c(-c3ccc4c(c3)OCCCO4)c(C)oc2c1

1: 0.01% (inactive); 2: -6.94% (inactive); 3: 0.09% (inactive); 4: 28.9% (active); 5: -6.05% (inactive); 6: 68.3% (active); 7: -2.88% (inactive); 8: -5.36% (inactive)

Provide each entry's inhibition from the list below.
1. O=C(NCc1ccncc1)C1CCN(C(=O)c2cccc(Cl)c2)CC1
2. O=C(CCc1ccccc1)NCCc1cccs1
3. Cc1cc(C)c(C)c(S(=O)(=O)Nc2ccc(O)cc2)c1C

["-2.02% (inactive)", "-5.14% (inactive)", "-7.06% (inactive)"]

The measured values listed here are drawn from PubChem BioAssay AID624267.
